Target: Tubulin (Bos taurus) (UniProt Q6B856+Q862F3)
Assay: Inhibition of bovine brain tubulin polymerization assessed as increase in fluorescence intensity at 5 uM relative to control
ASSAY READOUT: inhibition (%)
Give bare numbers, in %.

The examples below pair each entry with its known result.
MOLECULE	ASSAY READOUT	UNITS SYMBOL	REPORTED MEASUREMENT
COc1cc([C@@H]2c3cc4c(cc3[C@@H](n3nnnc3C(=O)c3ccccc3)[C@H]3COC(=O)[C@H]23)OCO4)cc(OC)c1OC	inhibition	%	72.5
CCOC(=O)c1nnnn1[C@@H]1c2cc3c(cc2[C@@H](c2cc(OC)c(O)c(OC)c2)[C@H]2C(=O)OC[C@@H]21)OCO3	inhibition	%	2.68

Report inhibition for every entry below.
1. COC(=O)c1nnnn1[C@@H]1c2cc3c(cc2[C@@H](c2cc(OC)c(O)c(OC)c2)[C@H]2C(=O)OC[C@@H]21)OCO3
2. COc1cc([C@@H]2c3cc4c(cc3[C@@H](n3nnnc3C(=O)OCc3ccccc3)[C@H]3COC(=O)[C@H]23)OCO4)cc(OC)c1O
3. COc1cc([C@@H]2c3cc4c(cc3[C@H](O)[C@H]3COC(=O)[C@H]23)OCO4)cc(OC)c1OC [PODOFILOX]

Solution:
1. 28.3
2. 29.8
3. 93.9

Origin of measurements: ChEMBL document CHEMBL3588786
